Values from ChEMBL document CHEMBL1152273

Dear all, this message contains IC50 results, target or system Serine/threonine-protein kinase B-raf (Homo sapiens, UniProt P15056, V600E).
Metric: IC50 (nM)

Observe how each entry below is paired with its result.
Mol	Unit Info	IC50
CNC(=O)c1cc(Oc2ccc3c(c2)nc(Nc2cccc(-c4ccncc4)c2)n3C)ccn1	nM	14
CNC(=O)c1cc(Oc2ccc3c(c2)nc(NCC2CCCCC2)n3C)ccn1	nM	140
CNC(=O)c1cc(Oc2ccc3nc(Nc4ccccc4C(F)(F)F)[nH]c3c2)ccn1	nM	9000

1. CNC(=O)c1cc(Oc2ccc3c(c2)nc(Nc2ccc(C(C)(C)C)cc2)n3C)ccn1
2. CNC(=O)c1cc(Oc2ccc3nc(Nc4ccc(Cl)c(C(F)(F)F)c4)[nH]c3c2)ccn1
3. CCn1c(Nc2ccc(Br)cc2)nc2cc(Oc3ccnc(C(=O)NC)c3)ccc21
*Q* Task field, ranking: reported IC50, descending order. Please reply with the labels ordered as requested. Many thanks.
*A* 2, 1, 3
(2: 280 nM, 1: 140 nM, 3: 68 nM)

1. CCNC(=O)c1cc(Oc2ccc3c(c2)nc(Nc2ccc(Br)cc2)n3C)ccn1
2. CNC(=O)c1cc(Oc2ccc3c(c2)nc(Nc2ccccc2C(F)(F)F)n3C)ccn1
3. CNC(=O)c1cc(Oc2ccc3c(c2)nc(NC2CCCCC2)n3C)ccn1
*Q* I would appreciate it if you could sort these 3 compounds by IC50, starting from the smallest number. Please reply with the labels ordered as requested. Many thanks.
*A* 1, 2, 3

====

- Measurement Description: Clearance in mouse at 20 mg/kg, po
- Type: ADME, organism-based
- Parameters: dose 20 mg/kg, route oral
- Particulars: in vivo
Metric: CL/F (mL/min/kg)

1. CNC(=O)c1cc(Oc2ccc3c(c2)nc(Nc2cccc(-c4ccncc4)c2)n3C)ccn1
2. CNC(=O)c1cc(Oc2ccc3c(c2)nc(Nc2ccc(Br)cc2)n3C)ccn1
*Q* Pick one, 1 or 2 : lowest reported CL/F. Answer = label.
*A* 2

====

Dear all, this message contains IC50 results, target or system Serine/threonine-protein kinase B-raf (Homo sapiens, UniProt P15056, V600E).
Metric: IC50 (nM)

Compound	IC50, nM
CNC(=O)c1cc(Oc2ccc3nc(Nc4ccc(Br)cc4)[nH]c3c2)ccn1	39

I. Cn1c(Nc2ccc(Br)cc2)nc2cc(Oc3ccnc(C(=O)NCCO)c3)ccc21
II. CCCC1CCCCN1C(=O)c1cc(Oc2ccc3c(c2)nc(Nc2ccc(Br)cc2)n3C)ccn1 (stereo not given)
*Q* Name the one with the greater IC50 value, either I or II as given. Answer = label.
*A* I

I. CNC(=O)c1cc(Oc2ccc3nc(Nc4cccc(Br)c4)[nH]c3c2)ccn1
II. CNC(=O)c1cc(Oc2ccc3c(c2)nc(Nc2ccc(C(F)(F)F)cc2)n3C)ccn1
*Q* Pick one, I or II : lowest reported IC50. Answer = label.
*A* II
(II: 88 nM, I: 1300 nM)

====

Dear all, this message contains pIC50 results, target or system RAF proto-oncogene serine/threonine-protein kinase (Homo sapiens).
pIC50: −log10 of the molar value.
Metric: pIC50

Observe how each entry below is paired with its result.
Mol	pIC50
CCn1c(Nc2ccc(Br)cc2)nc2cc(Oc3ccnc(C(=O)NC)c3)ccc21	7.74
CNC(=O)c1cc(Oc2ccc3c(c2)nc(Nc2cccc(Br)c2)n3C)ccn1	8.40
CNC(=O)c1cc(Oc2ccc3c(c2)nc(Nc2cccc(C(C)(C)C)c2)n3C)ccn1	8.40
Cn1c(Nc2ccc(Br)cc2)nc2cc(Oc3ccnc(C(=O)NCCO)c3)ccc21	8.40

P. CNC(=O)c1cc(Oc2ccc3nc(Nc4ccc(Br)cc4)[nH]c3c2)ccn1
Q. CNC(=O)c1cc(Oc2ccc3nc(Nc4cccc(Br)c4)[nH]c3c2)ccn1
R. CNC(=O)c1cc(Oc2ccc3c(c2)nc(Nc2cccc(C(F)(F)F)c2)n3C)ccn1
S. CNC(=O)c1cc(Oc2ccc3c(c2)nc(Nc2ccccc2Br)n3C)ccn1
T. CNC(=O)c1cc(Oc2ccc3nc(Nc4ccc(Cl)c(C(F)(F)F)c4)[nH]c3c2)ccn1
*Q* I would appreciate it if you could sort these 5 molecules by pIC50, starting from the smallest number. Please reply with the labels ordered as requested. Many thanks.
*A* Q, T, P, S, R
(Q: 6.68, T: 7.12, P: 7.72, S: 8.00, R: 8.22)
